// reported Emax for each item listed
MEASURED_ON: F876L mutant Androgen Receptor (AR-F876L) (Homo sapiens, UniProt P10275, F877L)
Construct: expressed in transfected cells; host or cells: LNCaP
Sequence (P10275 whole entry F877L): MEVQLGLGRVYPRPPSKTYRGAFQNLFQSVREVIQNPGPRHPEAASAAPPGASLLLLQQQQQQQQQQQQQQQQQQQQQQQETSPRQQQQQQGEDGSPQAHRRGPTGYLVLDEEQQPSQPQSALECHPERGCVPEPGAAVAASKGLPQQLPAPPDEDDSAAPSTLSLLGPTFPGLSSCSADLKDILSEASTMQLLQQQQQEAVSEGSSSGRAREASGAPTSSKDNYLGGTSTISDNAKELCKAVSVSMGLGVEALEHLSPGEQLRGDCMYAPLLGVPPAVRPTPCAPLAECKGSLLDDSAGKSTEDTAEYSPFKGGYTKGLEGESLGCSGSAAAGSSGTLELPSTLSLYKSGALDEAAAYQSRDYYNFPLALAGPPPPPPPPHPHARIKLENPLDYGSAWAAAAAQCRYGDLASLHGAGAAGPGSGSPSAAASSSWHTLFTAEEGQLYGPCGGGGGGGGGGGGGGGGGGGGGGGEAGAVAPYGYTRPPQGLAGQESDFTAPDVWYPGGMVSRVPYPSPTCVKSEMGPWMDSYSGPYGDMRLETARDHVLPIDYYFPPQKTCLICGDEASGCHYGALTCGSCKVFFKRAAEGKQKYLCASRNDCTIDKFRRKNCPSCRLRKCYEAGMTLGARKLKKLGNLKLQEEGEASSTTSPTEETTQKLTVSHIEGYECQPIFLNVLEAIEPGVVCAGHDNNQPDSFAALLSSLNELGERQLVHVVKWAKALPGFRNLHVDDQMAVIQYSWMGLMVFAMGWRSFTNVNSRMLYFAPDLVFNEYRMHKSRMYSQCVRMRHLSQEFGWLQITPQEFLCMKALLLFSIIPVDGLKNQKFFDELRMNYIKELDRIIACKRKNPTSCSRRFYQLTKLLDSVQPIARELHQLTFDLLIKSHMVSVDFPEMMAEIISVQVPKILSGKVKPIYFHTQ
ASSAY_METHOD_TEXT: AR reporter assay, LNCaP-AR-F876L ANT (antagonist mode)
Type: cell-based
CONDITION_PARAMETERS: read-out: LNCaP-AR-F876L ANT MAX % Inh
Where a name gives a salt, the structure may show the parent alone.
READOUT_KIND: Emax (%)

MOLECULE	UNIT_TEXT	RECORDED_RESULT
CC1(C)C(=O)N(c2ccc(C#N)c(C(F)(F)F)c2)C(=S)N1c1cnc(OC2CCNCC2)nc1 [Compound 5]	%	101
N#Cc1ccc(N2C(=O)C3(CCC3)N(c3cnc(OC4CCNCC4)nc3)C2=S)cc1C(F)(F)F [Compound 15]	%	101
N#Cc1ccc(N2C(=O)C3(CCC3)N(c3ccc(OC4CCNCC4)nc3)C2=S)cc1Cl [Compound 23, hydrochloride]	%	103
